# assay-system: T1, hIL2Rg-Fc (SinoBiological cat#10555) (human, UniProt P31785 23-254, limits assumed)
# T1 construct: Bought Fc fusion (SinoBiological cat#10555); P31785 is printed for hCD132 in the background; also called human IL2Rg-Fc; not shown: Fc of the bought fusion protein
# T1 sequence (looked up): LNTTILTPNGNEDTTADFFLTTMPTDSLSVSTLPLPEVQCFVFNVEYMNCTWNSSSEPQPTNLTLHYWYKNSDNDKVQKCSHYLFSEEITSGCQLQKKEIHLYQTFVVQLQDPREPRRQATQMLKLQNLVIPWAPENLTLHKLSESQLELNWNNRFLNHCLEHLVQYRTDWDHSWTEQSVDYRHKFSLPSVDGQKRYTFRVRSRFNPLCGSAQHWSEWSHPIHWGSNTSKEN
# assay-comment: SPR (Biacore T200), Fc-fused ligand captured on chip, dual VHH as analyte, 1:1 Langmuir fit
parameter: kon (M⁻¹ s⁻¹)
Entry rule: numbers only, all in M⁻¹ s⁻¹.

{"columns": ["binder", "parameter", "test-result"],
 "data": [
  ["DR437(DR235-DR233) (bispecific antibody, Anti-hIL10Ra/hIL2Rg dual VHH with ASH6 handle; also called D6) QVQLQESGGGSVQAGGSLRLSCAASRYLYSIDYMAWFRQSPGKEREPVAVIYTASGATFYPDSVKGRFTISQDNAKMTVYLQMNSLKSEDTAMYYCAAVRKTDSYLFDAQSFTYWGQGTQVTVSSGGGSQVQLQESGGGSVQAGGSLRLSCTASGFTFDDSDMGWYRQAPGNECELVSTISSDGSTYYADSVKGRFTISQDNAKNTVYLQMNSLKPEDTAVYYCAAEPRGYYSNYGGRRECNYWGQGTQVTVSSASHHHHHH", "kon", 190000],
  ["DR466(DR240-DR232) (bispecific antibody, Anti-hIL10Ra/hIL2Rg dual VHH with ASH6 handle; also called H7) QVQLQESGGGSVQAGGSLRLSCGASGYTYSSYCMGWFRQVPGKEREGVAVIDSDGSTSYADSVKGRFTISKDNGKNTLYLQMNSLKPEDTAMYYCAADLGHYRPPCGVLYLGMDYWGKGTQVTVSSGGGSQVQLQESGGGSVQAGGSLRLSCVASGYTSCMGWFRQAPGKEREAVATIYTRGRSIYYADSVKGRFTISQDNAKNTLYLQMNSLKPEDIAMYSCAAGGYSWSAGCEFNYWGQGTQVTVSSASHHHHHH", "kon", "1.2e+06"],
  ["DR395(DR229-DR239) (bispecific antibody, Anti-hIL10Ra/hIL2Rg dual VHH with ASH6 handle; also called A2) QVQLQESGGGLVQPGGSLRLSCTASGFSFSSYPMTWARQAPGKGLEWVSTIASDGGSTAYAASVEGRFTISRDNAKSTLYLQLNSLKTEDTAMYYCTKGYGDGTPAPGQGTQVTVSSGGGSQVQLQESGGGSVQAGGSLRLSCTVSGYTYSSNCMGWFRQAPGKEREGVATIYTGGGNTYYADSVKGRFTISQDNAKNTVYLQMNNLKPEDTAMYYCAAEPLSRVYGGSCPTPTFDYWGQGTQVTVSSASHHHHHH", "kon", "2e+06"]
]}

Shifting focus to the binder that follows.
Lookup: Any idea what kon was measured for DR442(DR236-DR232) (bispecific antibody, Anti-hIL10Ra/hIL2Rg dual VHH with ASH6 handle; also called F7) QVQLQESGGGSVQAGGSLRLSCAASRFTYSSYCMGWFRQAPGKEREGVASIDSDGSTSYTDSVKGRFTISKDNAKNTLYLQMNSLKPEDTAMYYCALDLMSTVVPGFCGFLLSAGMDYWGKGTQVTVSSGGGSQVQLQESGGGSVQAGGSLRLSCVASGYTSCMGWFRQAPGKEREAVATIYTRGRSIYYADSVKGRFTISQDNAKNTLYLQMNSLKPEDIAMYSCAAGGYSWSAGCEFNYWGQGTQVTVSSASHHHHHH ?
Found: 2e+06
